- Tested on: UGT enzymes of human liver microsomes
- protocolDetails: Inhibition of raloxifene glucuronidation (G1, G2) in human liver microsomes
- Format: biochemical
- experimentalContext: G2; inhibitor 25 μM; raloxifene 50 μM, human liver microsomes 250 μg/ml, 15 min
Readings of % of control metabolism (SD, n = 3), raloxifene glucuronide G2 for the listed compounds
assayReadout: % of control metabolism (SD, n = 3), raloxifene glucuronide G2

compound: O=c1c(O)c(-c2ccc(O)c(O)c2)oc2cc(O)cc(O)c12
observed: 25 (1) %
//
compound: CC/C(=C(/CC)c1ccc(O)cc1)c1ccc(O)cc1 [Diethylstilbestrol, reference compound]
observed: 100 (5) %
//
compound: CCCCCCCCOC(=O)c1cc(O)c(O)c(O)c1 [Octyl gallate]
observed: 59 (5) %
//
compound: C#C[C@]1(O)CC[C@H]2[C@@H]3CCc4cc(O)ccc4[C@H]3CC[C@@]21C [17-α-Ethinylestradiol, 17-α-ethinylestradiol, reference compound]
observed: 80 (3) %
//
compound: O=C(O[C@@H]1Cc2c(O)cc(O)cc2O[C@H]1c1cc(O)c(O)c(O)c1)c1cc(O)c(O)c(O)c1 [Gallocatechin gallate]
observed: 64 (4) %

---

- experimentalTarget: UGT1A8 (Homo sapiens, UniProt Q9HAW9)
- Sequence (Q9HAW9 26-530): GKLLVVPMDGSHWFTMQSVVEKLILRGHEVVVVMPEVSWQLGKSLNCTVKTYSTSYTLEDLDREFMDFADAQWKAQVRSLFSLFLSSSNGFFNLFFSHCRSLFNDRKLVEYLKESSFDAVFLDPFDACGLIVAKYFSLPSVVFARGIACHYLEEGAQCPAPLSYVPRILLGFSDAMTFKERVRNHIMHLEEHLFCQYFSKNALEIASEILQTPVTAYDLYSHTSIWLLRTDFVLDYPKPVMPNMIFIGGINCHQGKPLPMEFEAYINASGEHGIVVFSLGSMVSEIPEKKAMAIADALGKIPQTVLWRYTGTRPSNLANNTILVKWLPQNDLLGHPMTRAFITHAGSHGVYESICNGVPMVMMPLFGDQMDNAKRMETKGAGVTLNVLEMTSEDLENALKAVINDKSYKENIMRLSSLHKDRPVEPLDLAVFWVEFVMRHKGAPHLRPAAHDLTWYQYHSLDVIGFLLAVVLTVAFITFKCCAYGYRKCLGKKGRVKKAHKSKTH
- protocolDetails: in vitro
- experimentalContext: pH 7.5, % of control metabolism, raloxifene G1
assayReadout: activity at 15 min, 50 µM (%)

compound: C=CCc1ccc(O)c(OC)c1 [Eugenol]
assayReadout: activity at 15 min, 50 µM
observed: 107
--
compound: O=C(O)c1cc(-c2ccc(F)cc2F)ccc1O [Diflunisal, reference compound]
assayReadout: activity at 15 min, 50 µM
observed: 81
--
compound: O=C(O[C@@H]1Cc2c(O)cc(O)cc2O[C@@H]1c1ccc(O)c(O)c1)c1cc(O)c(O)c(O)c1 [Epicatechin gallate]
assayReadout: activity at 15 min, 50 µM
observed: 71
--
compound: O=c1c(O)c(-c2ccc(O)c(O)c2)oc2cc(O)cc(O)c12 [Quercetin]
assayReadout: activity at 15 min, 50 µM
observed: 95

---

- Test system: UGT enzymes of human liver microsomes
- Construct: residual metabolism (percentage of control), labetalol LG1; other: labetalol 50 μM; residual metabolism (percentage of control), labetalol LG1; residual metabolism (percentage of control), labetalol LG2; inhi
- protocolDetails: Inhibition of labetalol glucuronidation (LG1, LG2) in human liver microsomes
- Type: biochemical
- experimentalContext: labetalol 50 μM; inhibitor 50 μM
Readings of residual metabolism (percentage of control), labetalol LG1 for the listed molecules
assayReadout: residual metabolism (percentage of control), labetalol LG1

molecule: CC/C(=C(/CC)c1ccc(O)cc1)c1ccc(O)cc1 [Diethylstilbestrol, reference compound]
observed: 23 (3) %

molecule: O=c1c(O)c(-c2ccc(O)c(O)c2)oc2cc(O)cc(O)c12 [Quercetin]
observed: 78 (4) %

molecule: O=C(OC[C@H]1O[C@@H](OC(=O)c2cc(O)c(O)c(OC(=O)c3cc(O)c(O)c(O)c3)c2)[C@H](OC(=O)c2cc(O)c(O)c(OC(=O)c3cc(O)c(O)c(O)c3)c2)[C@@H](OC(=O)c2cc(O)c(O)c(OC(=O)c3cc(O)c(O)c(O)c3)c2)[C@@H]1OC(=O)c1cc(O)c(O)c(OC(=O)c2cc(O)c(O)c(O)c2)c1)c1cc(O)c(O)c(OC(=O)c2cc(O)c(O)c(O)c2)c1 [Tannic acid]
observed: 42 (1) %

molecule: O=C(O)c1cc(-c2ccc(F)cc2F)ccc1O [Diflunisal, reference compound]
observed: 92 (4) %

molecule: O=C(O[C@@H]1Cc2c(O)cc(O)cc2O[C@H]1c1cc(O)c(O)c(O)c1)c1cc(O)c(O)c(O)c1 [Gallocatechin gallate]
observed: 60 (5) %

---

- Tested on: UGT enzymes of human liver microsomes
- protocolDetails: Inhibition of raloxifene glucuronidation (G1, G2) in human liver microsomes
- Format: biochemical
- experimentalContext: G1; inhibitor 100 μM; raloxifene 50 μM, human liver microsomes 250 μg/ml, 15 min
assayReadout: % of control metabolism (SD, n = 3), raloxifene glucuronide G1

molecule: O=C(O[C@@H]1Cc2c(O)cc(O)cc2O[C@H]1c1cc(O)c(O)c(O)c1)c1cc(O)c(O)c(O)c1 [Gallocatechin gallate]
observed: 20 (1) %
--
molecule: O=C(O[C@@H]1Cc2c(O)cc(O)cc2O[C@@H]1c1ccc(O)c(O)c1)c1cc(O)c(O)c(O)c1 [Epicatechin gallate]
observed: 20 (0) %
--
molecule: C#C[C@]1(O)CC[C@H]2[C@@H]3CCc4cc(O)ccc4[C@H]3CC[C@@]21C [17-α-Ethinylestradiol, 17-α-ethinylestradiol, reference compound]
observed: 31 (2) %
--
molecule: O=C(O)c1cc(-c2ccc(F)cc2F)ccc1O [Diflunisal, reference compound]
observed: 30 (4) %
--
molecule: CC1=C(CC(=O)O)c2cc(F)ccc2/C1=C\c1ccc([S+](C)[O-])cc1 (centres unmarked)
observed: 76 (6) %
--
molecule: COc1cc(CNC(=O)CCCC/C=C/C(C)C)ccc1O
observed: 55 (4) %
--
molecule: CCCCCCCCOC(=O)c1cc(O)c(O)c(O)c1 [Octyl gallate]
observed: 31 (3) %
--
molecule: O=C(O)Cc1ccccc1Nc1c(Cl)cccc1Cl [Diclofenac, reference compound]
observed: 50 (3) %
--
molecule: COc1cc(CNC(=O)CCCCCCC(C)C)ccc1O [Dihydrocapsaicin]
observed: 49 (1) %
--
molecule: CCCOC(=O)c1cc(O)c(O)c(O)c1 [Propyl gallate]
observed: 48 (2) %
--
molecule: CCCCCCCCCCCCCCCC(=O)OC[C@H](O)[C@H]1OC(=O)C(O)=C1O [Ascorbyl palmitate]
observed: 57 (2) %

---

- System: UGT enzymes of human liver microsomes
- Construct: percentage of control metabolism, 7-HFC glucuronidation; percentage of control metabolism, 7-HFC glucuronidation
- protocolDetails: Inhibition of 7-HFC glucuronidation in human liver microsomes
- Format: biochemical
- experimentalContext: inhibitor 25 μM
Readings of percentage of control metabolism, 7-HFC glucuronidation for the listed molecules
assayReadout: percentage of control metabolism, 7-HFC glucuronidation

molecule: CCCCCCCCCCCCOC(=O)c1cc(O)c(O)c(O)c1 [Lauryl gallate]
observed: 92 (3) %
//
molecule: O=C(O[C@@H]1Cc2c(O)cc(O)cc2O[C@H]1c1cc(O)c(O)c(O)c1)c1cc(O)c(O)c(O)c1 [Gallocatechin gallate]
observed: 80 (2) %
//
molecule: CCCCCCCCOC(=O)c1cc(O)c(O)c(O)c1 [Octyl gallate]
observed: 86 (1) %
//
molecule: CC/C(=C(/CC)c1ccc(O)cc1)c1ccc(O)cc1 [Diethylstilbestrol, reference compound]
observed: 57 (1) %

---

- experimentalTarget: UGT1A1 (Homo sapiens)
- Sequence (P22309 26-533): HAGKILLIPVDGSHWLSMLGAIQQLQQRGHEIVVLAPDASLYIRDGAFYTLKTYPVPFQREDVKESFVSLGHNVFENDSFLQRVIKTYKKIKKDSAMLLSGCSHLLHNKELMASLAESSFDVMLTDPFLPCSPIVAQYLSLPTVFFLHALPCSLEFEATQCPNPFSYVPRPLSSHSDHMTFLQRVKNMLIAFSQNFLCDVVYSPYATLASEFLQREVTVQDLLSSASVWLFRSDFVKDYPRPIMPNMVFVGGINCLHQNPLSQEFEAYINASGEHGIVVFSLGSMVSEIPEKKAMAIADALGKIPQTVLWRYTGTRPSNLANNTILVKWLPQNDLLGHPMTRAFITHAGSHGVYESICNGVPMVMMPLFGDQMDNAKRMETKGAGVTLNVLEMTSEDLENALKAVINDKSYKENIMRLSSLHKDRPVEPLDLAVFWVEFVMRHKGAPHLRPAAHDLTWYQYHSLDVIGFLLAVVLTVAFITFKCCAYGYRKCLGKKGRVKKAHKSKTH
- protocolDetails: Inhibition of raloxifene glucuronidation by recombinant UGT1A1 Supersomes
- experimentalContext: human, recombinant UGT1A1 Supersomes, pH 7.5, probe raloxifene 50 μM (formation of glucuronide G1), Inhibition of raloxifene glucuronidation, G1, UGT1A1, G1; inhibitor 2 μM; raloxifene 50 μM, 250 μg/ml Supersomes, 1 mM UDPGA, 15 min

smilesEntry: O=C(OC[C@H]1O[C@@H](OC(=O)c2cc(O)c(O)c(OC(=O)c3cc(O)c(O)c(O)c3)c2)[C@H](OC(=O)c2cc(O)c(O)c(OC(=O)c3cc(O)c(O)c(O)c3)c2)[C@@H](OC(=O)c2cc(O)c(O)c(OC(=O)c3cc(O)c(O)c(O)c3)c2)[C@@H]1OC(=O)c1cc(O)c(O)c(OC(=O)c2cc(O)c(O)c(O)c2)c1)c1cc(O)c(O)c(OC(=O)c2cc(O)c(O)c(O)c2)c1
quantityUnit: %
activity at 15 min, 2 μM: 71
